Experiment: Selectivity index, ratio of IC50 for human WI-38 cells to IC50 for human HCT-116 cells
Format: toxicity
Settings: WI-38 cells and HCT-116 cells, read-out: Ratio IC50
Readout: selectivity ratio
Lab note: write the figure by itself, no unit.

Fill blank: measured selectivity ratio of the molecule "CCN1CCN(c2ccc(NC(=O)Nc3ccc(-c4cc(C(=O)NC(C)C)c5ncccc5n4)cc3)cc2C(F)(F)F)CC1" is ____. 18.8

* * *

// reported IC50 per item
Molecular target: Macrophage colony-stimulating factor 1 receptor (Homo sapiens)
Sequence (P07333 whole entry): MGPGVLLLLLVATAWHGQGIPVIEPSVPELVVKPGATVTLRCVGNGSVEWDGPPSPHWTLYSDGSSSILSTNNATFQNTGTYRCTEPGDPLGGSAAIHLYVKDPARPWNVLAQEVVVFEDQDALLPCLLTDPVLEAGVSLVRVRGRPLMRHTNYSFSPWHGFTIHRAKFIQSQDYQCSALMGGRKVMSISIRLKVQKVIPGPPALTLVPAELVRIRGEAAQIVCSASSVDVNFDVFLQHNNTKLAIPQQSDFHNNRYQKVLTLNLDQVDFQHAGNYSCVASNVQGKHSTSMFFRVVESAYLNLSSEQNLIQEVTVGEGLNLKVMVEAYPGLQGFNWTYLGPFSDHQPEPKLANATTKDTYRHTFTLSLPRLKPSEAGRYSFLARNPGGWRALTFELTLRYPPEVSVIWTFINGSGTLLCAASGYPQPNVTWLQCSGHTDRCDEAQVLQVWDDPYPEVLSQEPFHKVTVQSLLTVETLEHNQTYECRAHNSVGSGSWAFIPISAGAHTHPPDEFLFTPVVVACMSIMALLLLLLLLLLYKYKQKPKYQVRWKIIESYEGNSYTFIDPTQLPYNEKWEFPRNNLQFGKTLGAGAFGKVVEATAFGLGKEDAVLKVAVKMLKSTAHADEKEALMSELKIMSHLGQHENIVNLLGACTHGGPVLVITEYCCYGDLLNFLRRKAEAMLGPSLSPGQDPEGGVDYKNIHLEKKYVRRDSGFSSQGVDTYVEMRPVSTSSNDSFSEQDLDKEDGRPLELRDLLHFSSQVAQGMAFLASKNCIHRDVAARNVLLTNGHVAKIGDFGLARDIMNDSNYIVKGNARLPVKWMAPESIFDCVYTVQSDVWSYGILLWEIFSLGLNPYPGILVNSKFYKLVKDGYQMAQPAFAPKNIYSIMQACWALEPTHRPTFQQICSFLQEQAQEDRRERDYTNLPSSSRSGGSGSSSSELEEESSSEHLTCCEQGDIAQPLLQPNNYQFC
Test: Inhibition of FMS (unknown origin) using myelin basic protein as substrate measured after 40 mins in presence of [gamma-33P]-ATP by scintillation counting method
Details: read-out: IC50
Write the figure, then the unit, nothing else.

Known IC50 results, listed for orientation:
>>> experimental_value("CNC(=O)c1cc(-c2ccc(NC(=O)Nc3ccc(N4CCNCC4)c(C(F)(F)F)c3)cc2)nc2cccnc12")
"743 nM"
>>> experimental_value("CC(C)NC(=O)c1cc(-c2ccc(NC(=O)Nc3ccc(N4CCN(C)CC4)c(C(F)(F)F)c3)cc2)nc2cccnc12")
"797 nM"
>>> experimental_value("CC(C)NC(=O)c1cc(-c2ccc(NC(=O)Nc3ccc(N4CCOCC4)c(C(F)(F)F)c3)cc2)nc2cccnc12")
"901 nM"
>>> experimental_value("CNC(=O)c1cc(-c2ccc(NC(=O)Nc3ccc(N4CCOCC4)c(C(F)(F)F)c3)cc2)nc2cccnc12")
"134 nM"
>>> experimental_value("CC(C)NC(=O)c1cc(-c2ccc(NC(=O)Nc3ccc(N4CCNCC4)c(C(F)(F)F)c3)cc2)nc2cccnc12")
"852 nM"

Notebook entry, Macrophage colony-stimulating factor 1 receptor (Homo sapiens) assay: IC50 of "C=CC(=O)N1CCN(c2ccc(NC(=O)Nc3ccc(-c4cc(C(=O)NC(C)C)c5ncccc5n4)cc3)cc2C(F)(F)F)CC1" = ? 788 nM

Here is the next compound: "C=CC(=O)N1CCN(c2ccc(NC(=O)Nc3ccc(-c4cc(C(=O)NC)c5ncccc5n4)cc3)cc2C(F)(F)F)CC1" 196 nM

Here is the next compound: "CCN1CCN(c2ccc(NC(=O)Nc3ccc(-c4cc(C(=O)NC(C)C)c5ncccc5n4)cc3)cc2C(F)(F)F)CC1" 993 nM
